Each recorded value in this set is attributed to PubChem BioAssay (NCI).

// TGI lookup, one value per entry
- Tested on: A549 NSCLC
- assayRemarks: NCI tumour cell line growth inhibition, 48 h
Where a SMILES comes first, the peptide text is derived from it. The star is where a group is joined. Boc = CC(C)(C)OC(=O)*

Request: Fill in the blank: the reported TGI of CC1(c2ccccc2)CC12C(=O)NC(=O)NC2=O (stereo not given) is ____.
Response: > 100 µM

Request: And for CS(=O)(=O)c1ccc(Oc2nccc(-c3c(-c4ccc(F)cc4)ncn3C3CCNCC3)n2)cc1 ?
Response: > 25 µM

Request: And for COC(=O)C(Cc1c[nH]c2ccccc12)NC(=O)C(Cc1c[nH]c2ccccc12)NC(=O)C(Cc1c[nH]c2ccccc12)NC(=O)C(Cc1c[nH]c2ccccc12)NC(=O)C(Cc1c[nH]c2ccccc12)NC(=O)OC(C)(C)C (stereo not given) (Boc-WWWWW-OMe; configuration not given here) ?
Response: > 100 µM

Request: And for COc1cc(/C=C2\CC(C)CC3C2=NN(c2ccccc2)C3c2cc(OC)c(OC)c(OC)c2)cc(OC)c1OC (stereo not given) ?
Response: > 100 µM

Request: And for CCOC(=O)c1[nH]c2cccc3c2c1CC(Br)C3=O (stereo not given) ?
Response: 38.2 µM

---
Request: Fill in the blank: the reported TGI of N#Cc1c(-c2cccc(Br)c2)cc(-c2ccc(Cl)cc2)nc1N is ____.
Response: 57 µM

Request: And for O=[N+]([O-])c1ccc(OCCNc2cccc3ccccc23)cc1 ?
Response: > 100 µM

Request: And for O=[N+]([O-])/C(C(Cl)=C(Cl)Cl)=C(\Nc1cccc2cccnc12)Sc1ccccc1 ?
Response: > 100 µM

Request: And for COc1ccc(/C=C/C(=O)c2cccc(C(=O)/C=C/c3ccc(OC)c(OC)c3)n2)cc1OC ?
Response: > 100 µM

Request: And for CCOC(=O)NC(OCCN(C)C)(C(F)(F)F)C(F)(F)F ?
Response: > 100 µM
